Give measured selectivity ratio for each item. Keep answers brief.
# protocol: Selectivity index, ratio of IC50 for human MCF10A cells to IC50 for human MDA-MB-231 cells
# Type: toxicity
# recorded-conditions: MCF10A cells versus MDA-MB-231 cells, read-out: Ratio IC50
Give bare numbers.

- sample-smiles: "O=[N+]([O-])c1ccc2c(c1)S(=O)(=O)C=C2"
  recorded-endpoint: "selectivity ratio"
  value-measured: 3.4

Then this compound:
Incoming: Dear colleague, I am looking for the recorded selectivity ratio of the following compound: CCN(CC)c1ccc2cc(C(=O)N3CCN(C(=O)C4=Cc5c(Br)cccc5S4(=O)=O)CC3)c(=O)oc2c1
Outgoing: 10.2
